test: Displacement of [3H]DALKD from bradykinin receptor in rat brain membrane at pH 6.8 by competition assay; format: cell membranes
Non-standard residues stand in square brackets, D forms with d. Residues, ends and D or L forms follow the SMILES beside them. ξ: configuration not given here. ξNle = CCCCC(N)C(=O)O
recorded.metric: pIC50

CC(C)C[C@H](NC(=O)[C@H](CCCCN)NC(=O)[C@@H]1CCCN1)C(=O)N[C@@H](CCCCN)C(=O)O (H-PKLK-OH)
6.68
CC[C@H](C)[C@H](NC(=O)[C@H](CCCNC(=N)N)NC(=O)[C@@H]1CCCN1C(=O)[C@@H](N)CCCCN)C(=O)N[C@@H](CCCNC(=N)N)C(=O)N[C@@H](CC(C)C)C(=O)N[C@@H](Cc1ccccc1)C(=O)O (H-KPRIRLF-OH)
7.3
CCCCC(N)C(=O)N[C@@H](CCCNC(=N)N)C(=O)N1CCC[C@H]1C(=O)N[C@@H](CCCNC(=N)N)C(=O)NC(CCCC)C(=O)N[C@@H](CCCCN)C(=O)O (some centres undefined) (H-[ξNle]RPR[ξNle]K-OH)
7.08
CC[C@H](C)[C@H](NC(=O)[C@@H](N)CCCNC(=N)N)C(=O)N[C@@H](CCCNC(=N)N)C(=O)N1CCC[C@H]1C(=O)N[C@@H](CCCCN)C(=O)N[C@@H](CC(C)C)C(=O)N[C@@H](CCCCN)C(=O)O (H-RIRPKLK-OH)
7.19
CC[C@H](C)[C@H](NC(=O)[C@H](CCCNC(=N)N)NC(=O)[C@@H](NC(=O)[C@@H](N)Cc1ccccc1)[C@@H](C)CC)C(=O)N[C@@H](CCCNC(=N)N)C(=O)N1CCC[C@H]1C(=O)N[C@@H](CCCNC(=N)N)C(=O)O (H-FIRIRPR-OH)
6.96
CC(C)C[C@H](NC(=O)[C@H](CCCNC(=N)N)NC(=O)[C@H](CC(C)C)NC(=O)[C@@H](N)Cc1ccccc1)C(=O)N[C@@H](CCCNC(=N)N)C(=O)N1CCC[C@H]1C(=O)N[C@@H](CCCNC(=N)N)C(=O)O (H-FLRLRPR-OH)
7
CC(C)C[C@H](NC(=O)[C@H](CCCCN)NC(=O)[C@@H]1CCCN1C(=O)[C@@H](N)CCCNC(=N)N)C(=O)N[C@@H](CCCCN)C(=O)O
7.24
CC[C@H](C)[C@H](NC(=O)[C@H](CCCNC(=N)N)NC(=O)[C@H](CCCNC(=N)N)NC(=O)[C@H](CC(C)C)NC(=O)[C@@H](N)Cc1ccccc1)C(=O)N[C@@H](CCCNC(=N)N)C(=O)N1CCC[C@H]1C(=O)N[C@@H](CCCCN)C(=O)N[C@@H](CC(C)C)C(=O)O (H-FLRRIRPKL-OH)
5.28
CCCCC(NC(=O)[C@H](CCCNC(=N)N)NC(=O)C(CCCC)NC(=O)[C@@H](N)Cc1ccccc1)C(=O)N[C@@H](CCCNC(=N)N)C(=O)N1CCC[C@H]1C(=O)N[C@@H](CCCNC(=N)N)C(=O)O (some centres undefined) (H-F[ξNle]R[ξNle]RPR-OH)
7.06
